Catalogue of molecules with associated MIC
System: Streptococcus
Test: In vitro minimum inhibitory concentration against Streptococcus Species (5 strains, including PRSP)
Type: functional

MOLECULE	READING_UNIT	BOUND_SIGN	MIC
C[C@@H](c1ccccc1)[C@@H]1NC(=O)CNC(=O)[C@H](CO)NC(=O)[C@@H]([C@@H](O)[C@@H]2CN=C(N)N2[C@H]2O[C@H](CO)[C@@H](O)[C@H](O)[C@@H]2O)NC(=O)[C@H]([C@H](O)[C@@H]2CN=C(N)N2)NC(=O)[C@@H](Cc2ccc3nc(-c4ccc(OCc5ccccc5)cc4)oc3c2)NC1=O	mg/L	=	8
CN[C@H](CC(C)C)C(=O)N[C@H]1C(=O)N[C@@H](CC(N)=O)C(=O)N[C@H]2C(=O)N[C@H]3C(=O)N[C@H](C(=O)N[C@H](C(=O)O)c4cc(O)cc(O)c4-c4cc3ccc4O)[C@H](O)c3ccc(c(Cl)c3)Oc3cc2cc(c3O[C@@H]2O[C@H](CO)[C@@H](O)[C@H](O)[C@H]2O[C@H]2C[C@](C)(N)[C@H](O)[C@H](C)O2)Oc2ccc(cc2Cl)[C@H]1O [VANCOMYCIN]	mg/L	=	0.25
CC(C)=Cc1nc2ccc(C[C@H]3NC(=O)[C@H]([C@@H](C)c4ccccc4)NC(=O)CNC(=O)[C@H](CO)NC(=O)[C@@H]([C@@H](O)[C@@H]4CN=C(N)N4[C@H]4O[C@H](CO)[C@@H](O)[C@H](O)[C@@H]4O)NC(=O)[C@H]([C@H](O)[C@@H]4CN=C(N)N4)NC3=O)cc2o1	mg/L	=	32
CCN1CCN(C(=O)N[C@@H](C(=O)N[C@@H]2C(=O)N3[C@@H]2SC(C)(C)[C@@H]3C(=O)O)c2ccccc2)C(=O)C1=O [PIPERACILLIN]	mg/L	<	0.12
